tested on: CCRF-CEM; assay: Cytostatic activity against human CEM cells after 72 hrs by MTT assay; format: functional, cell-based
IC50 values by entry
// note: answer is a bare numeric in µM

Known IC50 results, listed for orientation:
>>> df
                                   molecule  targetortestsystem  measuredresult
0  COc1cc(NC(C)CCCNC(=O)NCCc2ccccc2)c2ncccc2c1 (stereo not given)            CCRF-CEM              34
1  COc1cc(NC(C)CCCNC(=O)NC2CCCCC2)c2ncccc2c1 (stereo not given)            CCRF-CEM              36
2  COc1cc(NC(C)CCCNC(=O)NC(c2ccccc2)c2ccccc2)c2ncccc2c1 (stereo not given)            CCRF-CEM             142

Which measured IC50 value corresponds to COc1cc(NC(C)CCCNC(=O)NCc2ccccc2)c2ncccc2c1 (stereo not given) ?
18

Which measured IC50 value corresponds to COc1cc(NC(C)CCCNC(=O)N(C2CCCCC2)C2CCCCC2)c2ncccc2c1 (stereo not given) ?
13

Which measured IC50 value corresponds to CCN(CC)C(=O)NCCCC(C)Nc1cc(OC)cc2cccnc12 (stereo not given) ?
142

Which measured IC50 value corresponds to COc1cc(NC(C)CCCNC(=O)NCc2ccncc2)c2ncccc2c1 (stereo not given) ?
2.9

Which measured IC50 value corresponds to COc1cc(NC(C)CCCNC(=O)NCC2CCCCC2)c2ncccc2c1 (stereo not given) ?
22

Which measured IC50 value corresponds to COc1cc(NC(C)CCCNC(=O)NC2CCCC2)c2ncccc2c1 (stereo not given) ?
41

* * *

test: Cytotoxicity against HEL cells assessed as reduction in cell growth; type: cell-based; conditions: human
outcomeMeasure: CC50 (µM)
// note: answer is a bare numeric in µM

Known CC50 results, listed for orientation:
>>> df
                                   compound  measuredresult
0  COc1cc(NC(C)CCCNC(=O)NCCc2ccccc2)c2ncccc2c1 (stereo not given)              56
1  COc1cc(NC(C)CCCNC(=O)NCc2ccncc2)c2ncccc2c1 (stereo not given)              72
2  COc1cc(NC(C)CCCNC(=O)NCc2ccccc2)c2ncccc2c1 (stereo not given)              66

Which measured CC50 value corresponds to COc1cc(NC(C)CCCNC(=O)n2nnc3ccccc32)c2ncccc2c1 (stereo not given) [PRIMAQUINE BENZOTRIAZOLIDE] ?
72

Which measured CC50 value corresponds to COc1cc(NC(C)CCCNC(=O)NC2CCCC2)c2ncccc2c1 (stereo not given) ?
56

Which measured CC50 value corresponds to COc1cc(NC(C)CCCNC(=O)N(C2CCCCC2)C2CCCCC2)c2ncccc2c1 (stereo not given) ?
27

Which measured CC50 value corresponds to COc1cc(NC(C)CCCNC(=O)NC2CCCCC2)c2ncccc2c1 (stereo not given) ?
94

Which measured CC50 value corresponds to COc1cc(NC(C)CCCNC(=O)NCC2CCCCC2)c2ncccc2c1 (stereo not given) ?
74

* * *

assay: Cytotoxicity against HEL cells assessed as change in cell morphology; type: cell-based; details: human
MCC values by entry
// note: answer is a bare numeric in µM

Known MCC results, listed for orientation:
>>> df
                                   compound  outcomemeasure  measurementunits  measuredresult
0  COc1cc(NC(C)CCCNC(=O)NCc2ccccc2)c2ncccc2c1 (configuration not stated)             MCC                µM             100
1  COc1cc(NC(C)CCCNC(=O)NCC2CCCCC2)c2ncccc2c1 (configuration not stated)             MCC                µM             100
2  COc1cc(NC(C)CCCNC(=O)NC2CCCC2)c2ncccc2c1 (configuration not stated)             MCC                µM             100
3  COc1cc(NC(C)CCCNC(=O)NCc2ccncc2)c2ncccc2c1 (configuration not stated)             MCC                µM             100
4  COc1cc(NC(C)CCCNC(=O)NC2CCCCC2)c2ncccc2c1 (configuration not stated)             MCC                µM             100

Read the next record carefully.
Which measured MCC value corresponds to COc1cc(NC(C)CCCNC(=O)N(C2CCCCC2)C2CCCCC2)c2ncccc2c1 (configuration not stated) ?
4

* * *

MCC values by entry
experiment: Cytotoxicity against HEL cells assessed as change in cell morphology; assay type: cell-based; conditions: human

Known MCC results, listed for orientation:
>>> df
                                   compound  outcomemeasure  measuredresult
0  COc1cc(NC(C)CCCNC(=O)n2nnc3ccccc32)c2ncccc2c1 (stereo unspecified) [PRIMAQUINE BENZOTRIAZOLIDE]             MCC        > 100 µM
1  COc1cc(NC(C)CCCNC(=O)NCCc2ccccc2)c2ncccc2c1 (stereo unspecified)             MCC        > 100 µM
2              Nc1nc(O)c2ncn(COC(CO)CO)c2n1             MCC       > 1580 µM
3  COc1cc(NC(C)CCCNC(=O)NC(c2ccccc2)c2ccccc2)c2ncccc2c1 (stereo unspecified)             MCC        > 100 µM
4     Nc1ccn(C[C@@H](CO)OCP(=O)(O)O)c(=O)n1             MCC       > 1270 µM

Read the next record carefully.
Which measured MCC value corresponds to CCN(CC)C(=O)NCCCC(C)Nc1cc(OC)cc2cccnc12 (stereo unspecified) ?
> 100 µM
